System: SF-539 CNS
method-summary: NCI-60 one-dose screen, 48 h
assay-setup: 10 µM unless noted
This is part of a sample that, as a whole, favours compounds with a hit. Of some 83,000 tested, about 20% had one in any assay. Activity calls are given as the source filed them. How the source made its calls: active means growth percent below 10; inactive means the rest.
Result category, one only: label 1 = active, label 0 = inactive

Exam item: Which outcome did this test record for the compound "CC1(C)CC[C@]2(C(=O)O)CC[C@]3(C)C(=CC[C@@H]4[C@@]5(C)C/C(=C/c6cccnc6)[C@H](O)C(C)(C)[C@@H]5CC[C@]43C)[C@@H]2C1" ?
Marked response: label 1

Exam item: Hey, what did the test say about "COc1cc2c(cc1OCCCN1CCN(CCCOc3cc4c(cc3OC)C(=O)N3C[C@H](F)C[C@H]3C=N4)CC1)N=C[C@@H]1C[C@@H](F)CN1C2=O" ?
Marked response: label 1

Exam item: Returns: the outcome recorded for "COc1ccc(C=C2c3ccccc3-c3ccccc32)cc1" in this assay.
Marked response: label 0

Exam item: For this compound, state the assay outcome: "CCOC(=O)Nc1ccc2c(c1)/C(=N\NC(=S)NC)c1ccccc1-2"
Marked response: label 0

Exam item: What did this assay record as the result for "Cc1ccc(Oc2c(/C=N/NC(=O)Cn3c(=O)sc4ccccc43)c(C)nn2-c2ccccc2)cc1" ?
Marked response: label 0

Exam item: What outcome does the record of this test show for "Cn1cc(-c2noc(-c3cn(C)c4ncc(F)cc34)n2)c2cc(Br)ccc21" ?
Marked response: label 0

Exam item: # lookup: test call for "Cc1ccc(-c2cn(C/C=C3\C=CN(S(=O)(=O)c4ccccc4)CC3)nn2)cc1"
Marked response: label 0

Exam item: Called result for CCN(CC)CCSC(=O)C(O)(c1ccccc1)C1CCCC1 (centres undefined)
Marked response: label 0

Exam item: Lab log entry: "COc1ccc2nc3ccccc3c(NCCNCCO)c2c1" — outcome as called in the assay?
Marked response: label 1

Exam item: Per the records of this test, what outcome belongs to "CCn1cc(-c2ccnc(NCCNS(=O)(=O)c3cccc4ccccc34)c2)c(-c2cccc(O)c2)n1" ?
Marked response: label 0

Exam item: Outcome logged for "Cc1ccc(NC(=S)/N=c2/n(-c3ccccc3)nc3n2CCN3C2=NCCN2)cc1" in this assay:
Marked response: label 0

Exam item: Look up the recorded call for CCOC(=O)c1nn(C2CCCCO2)c2ccc(NC(=O)CN3CCOCC3)cc12 (centres undefined) in this test.
Marked response: label 0

Exam item: For "CCCCCN(CCCCC)CCCCCCCCN1CCCc2ccccc21" , which call appears in the assay record?
Marked response: label 0

Exam item: Returns: the outcome recorded for "CC(=O)Nc1ccc2nc3ccc(NC(C)=O)cc3[n+](-c3ccccc3)c2c1" in this assay.
Marked response: label 0

Exam item: Status in this test for "[2H]C1([2H])CCN(C(=O)C2CC2)c2cc(NS(=O)(=O)c3ccc(-c4cccc(C(N)=O)c4)cc3)ccc21" ?
Marked response: label 0

Exam item: Check the results log: what was the call for "O=C(N/N=C/c1c(Cl)cccc1Cl)c1cccc(Nc2ccnc(C(F)(F)F)c2)c1" ?
Marked response: label 0

Exam item: Which result was noted for this compound in the test: "CCN(CC)CCS(=O)(=O)CCNc1ccnc2cc(Cl)ccc12"
Marked response: label 1

Exam item: Which outcome was entered for the compound "NNC(=O)c1ccc(C(=O)NN)cc1" in this test?
Marked response: label 0

Exam item: Record request — test call for "CCc1cccc(Cl)c1"
Marked response: label 0

Exam item: Look up the recorded call for "CC1(C)C(=O)/C(=C\c2cccnc2)C[C@]2(C)[C@H]3CC[C@@H]4[C@H]5[C@H](C(=O)/C=C/c6cccnc6)CC[C@]5(C(=O)O)CC[C@@]4(C)[C@]3(C)CC[C@@H]12" in this test.
Marked response: label 1

Exam item: How was "CC(C)c1ccc(/C=N/N=C(N)N)cc1" classified in this test?
Marked response: label 0

Exam item: // return assay outcome for "c1ccc(-c2nc(N3CCCNCC3)c3nc(-c4ccccc4)oc3n2)cc1"
Marked response: label 0

Exam item: I'd appreciate the recorded outcome for "O=C(Nc1ccc(Oc2ccc(F)cc2)c(Cl)c1)c1cccnn1" from this test.
Marked response: label 0

Exam item: Please let me know the test result on file for "COc1cc2c(cc1OC(C)=O)C(=O)CCCC2" .
Marked response: label 0

Exam item: I would be grateful if you could indicate the recorded call for Nc1nc(N)c2c(n1)NC(c1ccc(F)cc1)C1CCc3ccccc3C1=N2 (centres undefined) .
Marked response: label 0

Exam item: Which outcome was assigned to "Cc1ccc2c(c1)/C(=N\N=C/c1cn(C(C)C)c3ccccc13)C(=O)N2" in this test?
Marked response: label 0

Exam item: Entry "Cc1ccccc1OC(=O)c1cccc(Cl)c1" : call = ?
Marked response: label 0

Exam item: Could you please tell me the result logged for "Cc1cc(SC#N)ncn1" in this assay?
Marked response: label 0

Exam item: For "C=C(C)[C@@H]1CC[C@]2(COCCC#N)CC[C@]3(C)[C@H](CC[C@@H]4[C@@](C)(CCCNCCC#N)[C@H](C(=C)C)CC[C@]43C)[C@@H]12" , what call appears in the results of this test?
Marked response: label 1
